Molecular target: T1, rhIL-17A (human, UniProt Q16552 24-155)
T1 construct: Homodimer; expressed from adenoviral vectors in HEK 293 cells; also called recombinant human IL-17A; adenovirus-derived rhIL-17A
T1 sequence: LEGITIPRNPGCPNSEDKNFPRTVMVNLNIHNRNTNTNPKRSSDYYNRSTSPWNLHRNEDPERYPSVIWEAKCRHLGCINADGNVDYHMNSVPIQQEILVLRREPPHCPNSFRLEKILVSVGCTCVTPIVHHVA
Test: KinExA, solution equilibrium
Measurement Type: Kd (pM)
Numbers only here, please. The scale is pM.

QUERY: What Kd value was documented for this binder, humanized 16C10 wt (antibody, human IgG1, kappa, V domains shown, Humanized antibody with the parental rat CDRs; Human IgG1/kappa; also called hu 16C10 wt; hu16C10 (wt)) VH: QVQLQESGPGLVKPSETLSLTCTVSGFSLPSHSVSWIRQPPGKGLEWIGIIWNNGGTDYNSAFKSRVTISVDTSKNQFSLKLSSVTAADTAVYYCARNMYITDYYYENYFMDAWGQGTLVTVSS VL: DIVMTQSPLSLPVTPGEPASISCKSSQSLLFSENQKNYLAWYLQKPGQSPQLLIYWTSTRQSGVPDRFSGSGSGTDFTLKISRVEAEDVGVYYCQQSYYTPYTFGQGTKVEIKR ?
RESULT: 8.8

QUERY: What Kd value was documented for this binder, rat 16C10 (antibody, rat IgG1, V domains shown, also called 16C10C; antibody 16C10) VH: QVELRESGPGLVQPSQTLSLTCTVSGFSLPSHSVSWIRQPPGKGLEWMGIIWNNGGTDYNSAFKSRLTISRDTSKSQVFLKMNSLQTEDTAMYFCARNMYITDYYYENYFMDAWGQGASVTVSS VL: DIVMTQSPSSLAVSIGETVTLNCKSSQSLLFSENQKNYLAWYQHKSGQSPKLLVYWTSTRQSGVPDRFMGSGSGTDFTLTISSVQAEDLAIYYCQQSYYTPYTFGAGTKLELKR ?
RESULT: 6

QUERY: What Kd value was documented for this binder, humanized 16C10 (VH N54Q/M96A) (antibody, human IgG1, kappa, V domains shown, Human IgG1/kappa; also called hu 16C10; hu16C10) VH: QVQLQESGPGLVKPSETLSLTCTVSGFSLPSHSVSWIRQPPGKGLEWIGIIWNQGGTDYNSAFKSRVTISVDTSKNQFSLKLSSVTAADTAVYYCARNAYITDYYYENYFMDAWGQGTLVTVSS VL: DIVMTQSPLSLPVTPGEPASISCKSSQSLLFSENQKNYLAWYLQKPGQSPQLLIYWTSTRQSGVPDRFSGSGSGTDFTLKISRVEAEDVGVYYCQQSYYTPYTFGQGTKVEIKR ?
RESULT: 3.9
